target: Nuclear receptor subfamily 1 group I member 2 (Homo sapiens) (UniProt O75469); assay: ATG_PXR_TRANS: Attagene TRANS-FACTORIAL HepG2 Assay for human Pregnane X Receptor (PXR) (AID 2283008)
Sequence (O75469 whole entry, looked up): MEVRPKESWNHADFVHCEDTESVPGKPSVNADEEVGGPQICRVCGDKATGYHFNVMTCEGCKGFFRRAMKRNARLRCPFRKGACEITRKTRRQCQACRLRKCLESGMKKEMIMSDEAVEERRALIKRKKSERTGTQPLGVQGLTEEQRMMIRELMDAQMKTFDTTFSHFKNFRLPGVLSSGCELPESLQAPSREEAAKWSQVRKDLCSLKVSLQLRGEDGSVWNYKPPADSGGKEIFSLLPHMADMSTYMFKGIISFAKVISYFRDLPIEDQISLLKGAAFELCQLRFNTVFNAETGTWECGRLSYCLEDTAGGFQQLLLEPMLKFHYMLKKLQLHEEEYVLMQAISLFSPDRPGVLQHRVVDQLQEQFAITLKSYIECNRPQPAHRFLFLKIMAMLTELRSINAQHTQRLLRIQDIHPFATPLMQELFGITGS
Records with an inconclusive call do not appear. The source made the active and inactive calls. How the source made its calls: active means hit-call score of the fitted dose curve at least 0.9, where 1 is the maximum; inconclusive means response in the unintended direction; inactive means score below 0.9.
Outcomes: active, inactive

INSERT INTO assay_data (compound, class_assignment) VALUES
  ('CC[C@]12CCCN3CCc4c(n(c5ccccc45)[C@@](O)(C(=O)OC)C1)[C@@H]32', 'active'),
  ('CCCc1ccccc1O', 'inactive'),
  ('CCCCCCCCCCC(CO)CCCCCCCC (centres undefined)', 'inactive'),
  ('O=C(O)Cc1cccc2ccccc12', 'inactive'),
  ('Clc1nc(C(Cl)(Cl)Cl)c(Cl)c(Cl)c1Cl', 'active'),
  ('CCC(C(=O)NC(N)=O)c1ccccc1 (centres undefined)', 'inactive'),
  ('CCCCCCCCCCCCCC(=O)O', 'inactive'),
  ('CCCCCNCCCCC', 'inactive'),
  ('COc1cc(C(C)(C)C)c(O)c(C(C)(C)C)c1', 'inactive'),
  ('CCC(C)CCCC(C)(C)O (centres undefined)', 'inactive'),
  ('COC(=O)Cc1cccc2ccccc12', 'inactive'),
  ('CNC[C@H](O)c1cccc(O)c1', 'inactive'),
  ('CC1CC(OC(=O)c2ccccc2O)CC(C)(C)C1 (centres undefined)', 'inactive'),
  ('CCC(C)(O)CCC=C(C)C (centres undefined)', 'inactive'),
  ('CCCc1c(OCCCOc2ccc(OCC(=O)O)cc2)ccc(C(C)=O)c1O', 'active'),
  ('Cc1ccc(C=O)s1', 'inactive'),
  ('COc1ccnc(CS(=O)c2nc3cc(OC(F)F)ccc3[nH]2)c1OC (centres undefined)', 'inactive'),
  ('OCCCCCO', 'inactive'),
  ('CC(C)(C#N)c1cc(Cn2cncn2)cc(C(C)(C)C#N)c1', 'inactive'),
  ('CC(CCO)CCCC(C)(C)O (centres undefined)', 'inactive'),
  ('CCC(=O)OCc1ccccc1', 'inactive'),
  ('C=CC(C)(CCC=C(C)C)OC=O (centres undefined)', 'inactive'),
  ('CCCCCCCCCCCCN(CCCCCCCCCCCC)CCCCCCCCCCCC', 'inactive'),
  ('CC1(CO)CN(c2ccccc2)NC1=O (centres undefined)', 'inactive'),
  ('C=CC(=O)OCCn1c(=O)n(CCOC(=O)C=C)c(=O)n(CCOC(=O)C=C)c1=O', 'inactive'),
  ('CCCCc1ccc(N)cc1', 'inactive'),
  ('CCCOCC(C)O (centres undefined)', 'inactive'),
  ('CCCCC(CC)COCCC#N (centres undefined)', 'inactive'),
  ('COC(=O)c1ccc(C)cc1', 'active'),
  ('O=C(O)C[C@H](O)C[C@H](O)/C=C/c1c(C2CC2)nc2ccccc2c1-c1ccc(F)cc1', 'inactive'),
  ('CN(C)C(=N)N=C(N)N', 'inactive'),
  ('COc1ccc(OC)c(OC)c1', 'inactive'),
  ('CO[Si](C)(OC)c1ccccc1', 'active'),
  ('C[C@H]1C[C@H]2[C@@H]3CCC4=CC(=O)C=C[C@]4(C)[C@@]3(F)[C@@H](O)C[C@]2(C)[C@@]1(O)C(=O)COP(=O)(O)O', 'inactive'),
  ('CCCCCC(CO)CCC (centres undefined)', 'inactive'),
  ('CN(C)CCCN', 'inactive'),
  ('CC1(C)OC[C@@H]2O[C@@]3(C(=O)O)OC(C)(C)O[C@H]3[C@@H]2O1', 'inactive'),
  ('C/C=C(\C)C(=O)OCc1ccccc1', 'inactive'),
  ('O=C(O)CCSCCC(=O)O', 'inactive');
